# TEST SYSTEM: Ectonucleotide pyrophosphatase/phosphodiesterase family member 1 (Homo sapiens)
# Sequence (P22413 whole entry): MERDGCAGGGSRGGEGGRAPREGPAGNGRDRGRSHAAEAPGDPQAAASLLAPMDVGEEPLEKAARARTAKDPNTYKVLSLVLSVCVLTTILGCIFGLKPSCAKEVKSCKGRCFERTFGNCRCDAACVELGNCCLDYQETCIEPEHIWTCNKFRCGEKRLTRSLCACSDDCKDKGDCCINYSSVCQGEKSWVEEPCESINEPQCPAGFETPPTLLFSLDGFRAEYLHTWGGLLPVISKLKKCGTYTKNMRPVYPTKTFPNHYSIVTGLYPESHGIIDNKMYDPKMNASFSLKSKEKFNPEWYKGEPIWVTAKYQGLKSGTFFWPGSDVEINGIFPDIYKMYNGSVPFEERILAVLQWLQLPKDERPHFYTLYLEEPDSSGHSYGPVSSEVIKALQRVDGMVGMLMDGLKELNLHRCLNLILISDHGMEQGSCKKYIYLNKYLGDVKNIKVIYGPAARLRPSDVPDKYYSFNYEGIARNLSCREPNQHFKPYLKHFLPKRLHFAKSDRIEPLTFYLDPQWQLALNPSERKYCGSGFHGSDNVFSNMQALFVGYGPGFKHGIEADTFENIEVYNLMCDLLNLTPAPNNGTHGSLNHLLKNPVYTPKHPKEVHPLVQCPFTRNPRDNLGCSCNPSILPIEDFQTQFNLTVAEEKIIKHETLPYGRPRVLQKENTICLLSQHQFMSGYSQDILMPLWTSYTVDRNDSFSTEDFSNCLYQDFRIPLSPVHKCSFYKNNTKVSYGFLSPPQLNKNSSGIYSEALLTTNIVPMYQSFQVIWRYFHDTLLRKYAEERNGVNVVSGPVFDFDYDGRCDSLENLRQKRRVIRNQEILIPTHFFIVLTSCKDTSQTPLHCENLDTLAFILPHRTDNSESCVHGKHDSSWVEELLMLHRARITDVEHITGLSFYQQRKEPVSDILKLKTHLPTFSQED
# MEASUREMENT DESCRIPTION: Inhibition of ENPP1 Hydrolysis of 2′,3′-cGAMP
pIC50: −log10 of the molar value.
READOUT NAME: pIC50

The examples below pair each entry with its known result.
[
  {
    "COMPOUND": "COc1cccc2c(OCc3ccc(S(C)(=N)=O)cc3)ccnc12 (configuration not stated)",
    "TEST RESULT": "< 6.00"
  },
  {
    "COMPOUND": "COc1cc2nncc(N3CCC(CCS(C)(=N)=O)CC3)c2cc1OC (configuration not stated)",
    "TEST RESULT": "> 8.00"
  },
  {
    "COMPOUND": "COc1ccc2c(OCc3ccc(S(C)(=N)=O)cc3F)ccnc2c1 (configuration not stated)",
    "TEST RESULT": "> 8.00"
  },
  {
    "COMPOUND": "COc1ccc2nccc(Oc3ccc(S(C)(=N)=O)cc3)c2n1 (configuration not stated)",
    "TEST RESULT": "< 6.00"
  },
  {
    "COMPOUND": "COc1cc2nccc(N3CCC(CCS(C)(=N)=O)CC3)c2cc1F (configuration not stated)",
    "TEST RESULT": "> 8.00"
  },
  {
    "COMPOUND": "COc1cc2nccc(-c3ccc4c(c3)CN(S(C)(=N)=O)CC4)c2cc1OC (configuration not stated)",
    "TEST RESULT": "> 8.00"
  }
]

Pending compound:
Prompt: Please give the measured pIC50 for this compound: COc1cc2nccc(N3CCC(CCS(C)(=N)=O)CC3)c2cc1Cl (configuration not stated)
Response: > 8.00
